run-description: gradient 5% acetonitrile 3 min, to 50% in 2 min, to 85% in 15 min, held 3 min, 100 µL/min
settings: column: Zorbax Extend-C18 2.1 x 50 mm; eluents: water / acetonitrile, 0.1% formic acid
Below, each entry is listed alongside its reported RP-LC retention time.

O=C(c1csc(-c2ccc(N3CCCC3)nc2)n1)N1CCCCC1 :: 613 s
CCOc1ccc(-c2cc3n(n2)CCCN(C(C)=O)C3)cc1 :: 637 s
CCOC(=O)c1ccc(NC(=O)c2cc(C)nn2-c2ccccc2)cc1 :: 937 s
Cc1nc(-c2ccc(C(=O)NC3CC3)cc2)no1 :: 668 s
Cc1cc(C)cc(N2CCC(NC(=O)c3ccccc3)C2=O)c1 (centres undefined) :: 857 s

Which measured RP-LC retention time value corresponds to Cc1cccc(-c2noc(C3CCCN3C(=O)Nc3cccc(F)c3)n2)c1 (centres undefined) ?
1050 s

// next record O=C(Cn1cnc2ccccc21)N1CCC(COCc2ccccc2)CC1
608 s

// query: CCc1ccc2nc(NC3=NCN(Cc4cccnc4)CN3)nc(C)c2c1
608 s
